- PROTOCOL_SUMMARY: Displacement of [125I]Ang 2 from AT2 receptor in pig uterus membranes
- Type: cell membranes, Sus scrofa, Membrane
VALUE_KIND: pKi
API: returns pKi as number; meaning -log10 of concentration in mol/L.

Here is how some compounds turned out for pKi.
                            chemical_smiles  recorded_number
0  CCCCOC(=O)NS(=O)(=O)c1sc(CC(C)C)cc1-c1ccc(CN(Cc2ccccc2)C(C)=O)cc1             6.70
1  CCCCOC(=O)NS(=O)(=O)c1sc(CC(C)C)cc1-c1ccc(CC(=O)N2CCOCC2)cc1             6.91
2  CCCCOC(=O)NS(=O)(=O)c1sc(CC(C)C)cc1-c1ccc(CN(C)S(C)(=O)=O)cc1             7.49
3  CCCCOC(=O)NS(=O)(=O)c1sc(CC(C)C)cc1-c1ccc(CN(C)C(C)=O)o1             8.04
4  CCCCOC(=O)NS(=O)(=O)c1sc(CC(C)C)cc1-c1ccc(CN(C)C(C)=O)cc1             8.06

What value of pKi has been recorded for this entry: CCCCOC(=O)NS(=O)(=O)c1sc(CC(C)C)cc1-c1ccc(CN(CC)C(=O)c2cccs2)cc1
6.86

Again, but for CCCCOC(=O)NS(=O)(=O)c1sc(CC(C)C)cc1-c1ccc(CN(C)OC)cc1
8.55

Entry to check: CCCCOC(=O)NS(=O)(=O)c1sc(CC(C)C)cc1-c1ccc(CC(=O)N(CC)Cc2ccccc2)cc1
6.49

Please give the result for CCCCOC(=O)NS(=O)(=O)c1sc(CC(C)C)cc1-c1ccc(CNC(C)=O)cc1 too.
8.24

Entry to check: CCCCOC(=O)NS(=O)(=O)c1sc(CC(C)C)cc1-c1ccc(CN(Cc2cccnc2)C(C)=O)cc1
7.23

Also CCCCOC(=O)NS(=O)(=O)c1sc(CC(C)C)cc1-c1ccc(CN(Cc2cccnc2)C(=O)c2ccccc2)cc1 , if possible.
6.39

Okay, and CCCCOC(=O)NS(=O)(=O)c1sc(CC(C)C)cc1-c1ccc(CC(=O)N(C)CCCC)cc1 ?
6.44

Next record, please: CCCCOC(=O)NS(=O)(=O)c1sc(CC(C)C)cc1-c1ccc(CC(=O)Nc2ccc(C)cc2)cc1
7.24

Again, but for CCCCOC(=O)NS(=O)(=O)c1sc(CC(C)C)cc1-c1ccc(CC(=O)N(Cc2ccccc2)Cc2ccccc2)cc1
6.73
